- experiment.summary: IAM-HPLC affinity for membrane phospholipids (logKIAM/W)
- Type: physicochemical
- study.conditions: IAM.PC.MG column, pH 7.0 phosphate buffer/acetonitrile, extrapolated to 100% aqueous eluent
measured.attribute: LogKIAM/W
Please give only the number in your answer, with no unit.

Consider the following illustrative entries.
1) C[C@@H](C(=O)N[C@H]1C(=O)N(C)c2ccccc2-c2ccccc21)c1ccc(-c2ccccc2)c(F)c1 : 3.21
2) CC(C)[C@H](O)C(=O)N[C@@H](C)C(=O)N[C@@H]1C(=O)N(C)CCc2ccccc21 [LY-450139, reference compound] : 0.11
3) C[C@@H](C(=O)O)c1ccc(-c2ccccc2)c(F)c1 [R-FLU, (R)-enantiomer of flurbiprofen, reference compound] : 1.82

Okay, now this molecule:
Item under review: COC(=O)C1=C(C)NC(C)=C(C(=O)OCC(C)C)C1c1ccccc1[N+](=O)[O-] (stereo not shown) [Nisoldipine, reference compound] . Reported LogKIAM/W? 2.63
